Provide the recorded Percent Effect for the entries that follow.
- System: Trypanosoma cruzi
- ASSAY_PROTOCOL: Trypanosoma cruzi phosphomannomutase and mannose-1-phosphate guanylyltransferase assay
- Format: functional
- Parameters: scale not given: direction of the effect not stated beside the values
- CONDITION_SUMMARY: 10 µM
One number for each entry, in %.

INSERT INTO assay_data (compound, endpoint_result) VALUES
  ('CC(C)c1nc(C2CCCN2C(=O)c2cnc[nH]2)no1 (stereo not given)', -6.96),
  ('Cc1nn(C)c(C)c1CC(=O)N1CCC(N(C)c2cccnn2)CC1', -2.82);

Report Percent Effect for every entry below.
1. O=C([C@H]1C[C@@H]2CCN(C3CCOCC3)C[C@@H]2O1)N1CCOCC1
2. CCc1c(C)nc2n(c1=O)CC(C(=O)Nc1nc3c(s1)CCCC3)CS2 (stereo not given)
3. CC(=O)Nc1nc(C(=O)N2CCCC2Cn2cc(C)cn2)cs1 (stereo not given)
4. CN(C)C(=O)CS(=O)(=O)Cc1cc(Cl)c2c(c1)OCO2
5. O=C(C1CC(=O)N(C2CCCC2)C1)N1CCN(CCn2cccc2)CC1 (stereo not given)

Reply:
-3.48
2.86
-6.76
-0.654
2.82

Report Percent Effect for every entry below.
1. Cc1nc(CN2CCCC(N(C)CCc3ccncc3)C2)no1 (stereo not given)
2. Cc1nn(C)c(C)c1C1CCCN1C(=O)c1ccc(CN(C)C)cc1 (stereo not given)

Reply:
1: -2.51; 2: 2.14

Report Percent Effect for every entry below.
1. Cc1nnc(NC(=O)NCc2cc(F)cc(F)c2)s1
2. CCc1noc(CN2CCCC2c2noc(C3CC3)n2)n1 (stereo not given)
3. CCN(c1ccc(C(=O)N2CCCC2)cc1)S(=O)(=O)CC
4. CC(C)C(=O)N1CCN(C(=O)c2cc(C(C)C)on2)[C@H]2CS(=O)(=O)C[C@H]21
5. CS(=O)(=O)NC1CCCN(C(=O)NCc2cccnc2)C1 (stereo not given)

Reply:
-9.43
3.68
-0.486
3.4
2.25

Report Percent Effect for every entry below.
1. Cc1cc(CN2CCN(C(=O)c3sccc3C(C)C)CC2)no1
2. COc1cccc(OCC(=O)NS(=O)(=O)c2ccc(C)s2)c1

Reply:
1. 4.41
2. 5.19

###

- MEASUREMENT_TARGET: Protein translocase subunit SecA (Escherichia coli (strain K12)) (UniProt P10408)
- Sequence (P10408 whole entry): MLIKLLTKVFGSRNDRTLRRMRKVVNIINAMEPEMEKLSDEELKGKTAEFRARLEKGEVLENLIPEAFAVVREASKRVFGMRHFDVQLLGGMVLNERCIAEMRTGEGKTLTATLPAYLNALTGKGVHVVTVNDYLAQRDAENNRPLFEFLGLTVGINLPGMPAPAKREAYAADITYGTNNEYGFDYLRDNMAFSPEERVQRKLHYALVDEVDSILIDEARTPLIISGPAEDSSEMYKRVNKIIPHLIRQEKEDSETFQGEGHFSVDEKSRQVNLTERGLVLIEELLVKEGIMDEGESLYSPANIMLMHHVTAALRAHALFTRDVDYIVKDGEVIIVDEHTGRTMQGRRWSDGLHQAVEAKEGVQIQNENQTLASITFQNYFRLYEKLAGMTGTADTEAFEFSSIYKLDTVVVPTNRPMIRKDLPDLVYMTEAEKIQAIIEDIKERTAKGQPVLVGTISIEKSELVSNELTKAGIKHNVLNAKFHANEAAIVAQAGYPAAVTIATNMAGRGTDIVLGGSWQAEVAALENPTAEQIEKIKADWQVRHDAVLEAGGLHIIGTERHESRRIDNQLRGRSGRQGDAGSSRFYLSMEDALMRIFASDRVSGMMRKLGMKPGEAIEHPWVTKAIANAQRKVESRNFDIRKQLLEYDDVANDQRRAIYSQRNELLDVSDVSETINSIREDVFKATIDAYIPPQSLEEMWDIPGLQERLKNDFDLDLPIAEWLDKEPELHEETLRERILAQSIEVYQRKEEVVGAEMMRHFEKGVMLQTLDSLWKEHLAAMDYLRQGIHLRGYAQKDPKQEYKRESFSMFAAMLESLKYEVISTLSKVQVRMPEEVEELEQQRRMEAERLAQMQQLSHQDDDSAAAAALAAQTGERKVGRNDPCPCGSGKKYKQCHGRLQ
- ASSAY_PROTOCOL: Assay to Identify E. coli SecA ATPase Inhibitors
- Format: functional
- Design: scale not given: direction of the effect not stated beside the values
- CONDITION_SUMMARY: 30 µM
Potency and affinity values are given separately.
Provide the recorded Percent Effect for the entries that follow.
Give bare numbers, in %.

INSERT INTO measurements (compound, endpoint_result) VALUES
  ('CCOC(=O)CCC(=O)NC(C)c1ccc(NC(=O)CC)cc1 (centres undefined)', -1.67);

Report Percent Effect for every entry below.
1. CC(C)c1nnc2n1CCN(C(=O)c1ccc(-n3cnnc3)cc1)C2
2. CC(C)Oc1ncccc1CNC(=O)N1CCC(C(N)=O)C1 (centres undefined)

Reply:
1: -9.19; 2: -6.99

Query: State the recorded Percent Effect for this entry: CCc1ncc2c(n1)CN(Cc1nc(C)c(C)o1)CC2
Reply: -3.48

###

- Species on record: Homo sapiens
- ASSAY_PROTOCOL: To identify inhibition of the IFN signalling (Jak-Stat) pathway via expression of an eGFP reporter gene under the control of an IFN-stimulated response element (ISRE) containing MxA promoter.
- Type: functional
- Parameters: scale not given: direction of the effect not stated beside the values
- CONDITION_SUMMARY: 30 µM
MEASURED_QUANTITY: Percent Effect (%)
Numbers only, in %.

INSERT INTO assay_data (compound, measured_quantity, endpoint_result) VALUES
  ('Cc1cc(C(=O)N[C@@H]2CCNC[C@H]2O)ccc1Cl', 'Percent Effect', -9.87),
  ('O=C(NC1(c2cccc(F)c2)CCOCC1)c1cc[nH]n1', 'Percent Effect', 4.47),
  ('CC(C(=O)N1CCCN(Cc2ccc(C#N)cc2)CC1)n1ccnc1 (stereo not given)', 'Percent Effect', 29.1),
  ('O=C(c1c[nH]c(=O)c(Cl)c1)N1C[C@@H]2CC[C@H](C1)N(Cc1ccccc1)C2', 'Percent Effect', 9.64),
  ('CC(NC(=O)NCCCn1cncn1)c1ccc2c(c1)OCCO2 (stereo not given)', 'Percent Effect', 6.17),
  ('CCN(Cc1ccc2c(c1)OCCO2)C(=O)NCc1nc(C)cs1', 'Percent Effect', 11.4);

Report Percent Effect for every entry below.
1. O=C(CSC1=NS(=O)(=O)c2cc(F)ccc2N1)c1ccc(Cl)cc1
2. Cc1cc(-c2cnc(N3CCN(C)CC3)nc2-c2ccc(C)s2)on1
3. Cc1ccc(S(=O)(=O)N2CCc3nc(C4CCNCC4)ncc3C2)cc1
4. Cc1ccc(NC(=O)N2CCOC(C)C2)cc1Cl (stereo not given)

Reply:
1: 11.1; 2: -1.59; 3: 9.56; 4: 10.5

###

- MEASUREMENT_TARGET: Sialic acid-binding Ig-like lectin 9 (Homo sapiens)
- ASSAY_PROTOCOL: Hs-Siglec9 ALPHAscreen SOP 20170721
- Design: scale not given: direction of the effect not stated beside the values
- CONDITION_SUMMARY: 10 µM
MEASURED_QUANTITY: Percent Effect (%)
Numbers only, in %.

Report Percent Effect for every entry below.
1. Fc1ccc(CN2CCO[C@H]3[C@H](OCCN4CCCC4)CC[C@@H]32)cc1
2. CCn1c(C(=O)N2CCN(CC(C)O)CC2)cc2ccccc21 (stereo unspecified)
3. O=C(CCc1cc2n(n1)CCCN(Cc1ccccc1F)C2)NC1CC1
4. CC1CCCN(CC(=O)N2CCC(c3ncc4c(n3)CCNC4)CC2)C1 (stereo unspecified)

Reply:
[7.14, 7.69, 0.0735, -3.5]

Report Percent Effect for every entry below.
1. CCn1ccnc1CN1CCN(CCC(=O)NC(C)(C)C)CC1C (stereo unspecified)
2. CCc1ccc(NC(=O)c2cnc(N3CCN(C)CC3)nc2C)cc1

Reply:
[5.56, -20.9]

###

- MEASUREMENT_TARGET: Arginase-2, mitochondrial (Homo sapiens) (UniProt P78540)
- Sequence (P78540 whole entry): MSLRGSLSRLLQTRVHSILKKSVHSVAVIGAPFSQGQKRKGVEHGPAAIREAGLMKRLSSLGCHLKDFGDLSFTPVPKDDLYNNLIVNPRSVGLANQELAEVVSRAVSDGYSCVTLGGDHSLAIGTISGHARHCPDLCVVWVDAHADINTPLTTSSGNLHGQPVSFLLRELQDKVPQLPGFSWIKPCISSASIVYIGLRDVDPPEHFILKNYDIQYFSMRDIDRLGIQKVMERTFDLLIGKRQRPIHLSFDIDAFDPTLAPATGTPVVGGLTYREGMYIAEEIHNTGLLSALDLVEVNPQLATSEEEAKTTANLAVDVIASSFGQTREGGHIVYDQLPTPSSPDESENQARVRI
- ASSAY_PROTOCOL: in vitro enzyme assay to detect the production of urea directly proportional to the activity of Arginase II; further: in the data most compounds retested in dose-response had high values
- Assay type: functional
- Set-up: scale not given: direction of the effect not stated beside the values
- CONDITION_SUMMARY: 33.3 µM
MEASURED_QUANTITY: Percent Effect (%)
One number for each entry, in %.

Some compounds with known Percent Effect results, for comparison:
INSERT INTO measurements (compound, units_symbol, endpoint_result) VALUES
  ('CC1CCCN(C(=O)CCc2cccnc2)C1 (stereo unspecified)', '%', 6.84),
  ('CCOCC1CN(C(=O)c2ccncc2)Cc2nn(C)cc21 (stereo unspecified)', '%', -51.1),
  ('COC(C(=O)N1CCN(c2cccc(Cl)c2)C(=O)C1)c1ccccc1 (stereo unspecified)', '%', 3.33),
  ('CN(C)C(=O)C1(CCCc2ccncc2)CCCN1 (stereo unspecified)', '%', -3.48),
  ('CCN(Cc1nc2c(cnn2C)c(=O)[nH]1)c1cccc(F)c1', '%', -6.24);

Report Percent Effect for every entry below.
1. CCOC(CC)C(=O)NCCC(=O)N1CCN(c2ncccn2)CC1 (stereo unspecified)
2. CC(C)n1ncc2c1NC(=O)CC21C(=O)Nc2c(Cl)cccc21 (stereo unspecified)
3. O=C(Nc1cccnc1)[C@H]1C[C@@H]2CCN(c3nncs3)C[C@H]2O1
4. O=C1CC(c2ccc(F)c(F)c2)c2snc(C(=O)O)c2N1 (stereo unspecified)
5. CCC(=O)N(C)C1CCN(Cc2ncc(C)c(OC)c2C)CC1
6. CCOc1ccccc1Nc1nc2c(C)nn(C)c2c(=O)n1C
7. O=C(CCc1cscn1)NS(=O)(=O)c1ccc2ccccc2c1

Reply:
0
-6.87
-2.08
0.176
2.13
6.9
4.42

Report Percent Effect for every entry below.
1. CCn1cc(NC(=O)C2CCN(CC(=O)N3CCOCC3)CC2)cn1
2. CC(C)c1nnc2n1CCN(C(=O)c1ccc(-n3cnnc3)cc1)C2
3. Cc1nc(C)c(C(=O)NCCNC(=O)Cc2cccc(F)c2)s1
4. CC(C)CC1SCC(=O)Nc2c1cnn2C(C)C (stereo unspecified)
5. CCc1nnc2n1CCN(CC(=O)Nc1sccc1C#N)C2
6. CCN(C(=O)COC)C(c1cccnc1)c1ccc2c(c1)CCO2 (stereo unspecified)
7. COc1ccc(CCNC(=O)NC2CCCC2)cc1OC

Reply:
1. 1.8
2. -7.79
3. 0.924
4. -4.05
5. 5.4
6. -1.2
7. 3.33

Report Percent Effect for every entry below.
1. Cc1ccccc1Cc1cnc(NC(=O)C2CNC(=O)N2)s1 (stereo unspecified)
2. CCc1nnc2n1CCN(Cc1csc(-c3ccsc3)n1)C2

Reply:
[-4.95, 0.883]
